The values you see were collected from BigSolDB 2.1.

# test-conditions: in ethyl acetate, 318.15 K
measured-endpoint: solubility (mole fraction)

In one line, give reported solubility (mole fraction) of the entry Nc1cccc2c1CN(C1CCC(=O)NC1=O)C2=O (stereo unspecified) .
0.000239

---

# test-conditions: in ethyl acetate, 313.15 K
measured-endpoint: solubility (mole fraction)
Write the value as a bare number.

Quote solubility (mole fraction) reported for Nc1cccc2c1CN(C1CCC(=O)NC1=O)C2=O (stereo unspecified) please.
0.00021

---

# test-conditions: in methanol, 318.15 K
measured-endpoint: solubility (mole fraction)
Answer as a number with no unit attached.

Identify solubility (mole fraction) associated with the compound Nc1cccc2c1CN(C1CCC(=O)NC1=O)C2=O (stereo unspecified)
0.000359

---

# test-conditions: in isopropanol, 323.15 K
measured-endpoint: solubility (mole fraction)
Would you mind answering with just the numeric figure?

Identify the reported solubility (mole fraction) for the following entry. Nc1cccc2c1CN(C1CCC(=O)NC1=O)C2=O (stereo unspecified)
0.000195

---

# test-conditions: in ethyl acetate, 333.15 K
measured-endpoint: solubility (mole fraction)
Answer with a bare number; do not write a unit.

Tell us which solubility (mole fraction) value is on record for Nc1cccc2c1CN(C1CCC(=O)NC1=O)C2=O (stereo unspecified)
0.000367

---

# test-conditions: in ethanol, 303.15 K
measured-endpoint: solubility (mole fraction)
Simply state the number, no unit and no words.

Output solubility (mole fraction) of Nc1cccc2c1CN(C1CCC(=O)NC1=O)C2=O (stereo unspecified)
0.000209

---

# test-conditions: in ethanol, 298.15 K
measured-endpoint: solubility (mole fraction)
Please give the numeric answer without any surrounding text.

Answer with reported solubility (mole fraction) of Nc1cccc2c1CN(C1CCC(=O)NC1=O)C2=O (stereo unspecified)
0.000183

---

# test-conditions: in isopropanol, 318.15 K
measured-endpoint: solubility (mole fraction)
Note: the reply should be a number with no unit written.

Give the value of solubility (mole fraction) reported for the following: Nc1cccc2c1CN(C1CCC(=O)NC1=O)C2=O (stereo unspecified)
0.000168

---

# test-conditions: in ethyl acetate, 303.15 K
measured-endpoint: solubility (mole fraction)
Could you respond with only the numeric value?

Please report the measured solubility (mole fraction) for Nc1cccc2c1CN(C1CCC(=O)NC1=O)C2=O (stereo unspecified)
0.000164

---

# test-conditions: in isopropanol, 303.15 K
measured-endpoint: solubility (mole fraction)
// response body must contain only the number

Return value of solubility (mole fraction) for input Nc1cccc2c1CN(C1CCC(=O)NC1=O)C2=O (stereo unspecified) , no commentary.
9.5e-05

---

# test-conditions: in ethanol, 313.15 K
measured-endpoint: solubility (mole fraction)
# print the numeric value only

Respond only with solubility (mole fraction) recorded for Nc1cccc2c1CN(C1CCC(=O)NC1=O)C2=O (stereo unspecified)
0.00027

---

# test-conditions: in methanol, 308.15 K
measured-endpoint: solubility (mole fraction)
Please respond with just the number, no unit label.

Tell me measured solubility (mole fraction) for Nc1cccc2c1CN(C1CCC(=O)NC1=O)C2=O (stereo unspecified) please.
0.000309

---

# test-conditions: in ethanol, 333.15 K
measured-endpoint: solubility (mole fraction)
// return just the number, without any unit appended

Identify solubility (mole fraction) associated with the molecule Nc1cccc2c1CN(C1CCC(=O)NC1=O)C2=O (stereo unspecified)
0.00046

---

# test-conditions: in methanol, 323.15 K
measured-endpoint: solubility (mole fraction)

Consider the compound Nc1cccc2c1CN(C1CCC(=O)NC1=O)C2=O (stereo unspecified) . State its measured solubility (mole fraction).
0.000394

---

# test-conditions: in ethanol, 323.15 K
measured-endpoint: solubility (mole fraction)
Reply: number alone, nothing else.

Tell me solubility (mole fraction) reported for Nc1cccc2c1CN(C1CCC(=O)NC1=O)C2=O (stereo unspecified)
0.000357

---

# test-conditions: in ethyl acetate, 328.15 K
measured-endpoint: solubility (mole fraction)
Give the figure by itself; no unit, no explanation.

Quote solubility (mole fraction) reported for Nc1cccc2c1CN(C1CCC(=O)NC1=O)C2=O (stereo unspecified) please.
0.000319

---

# test-conditions: in methanol, 298.15 K
measured-endpoint: solubility (mole fraction)
// keep it numeric: no unit symbol after the value

// Input: Nc1cccc2c1CN(C1CCC(=O)NC1=O)C2=O (stereo unspecified) . Output its solubility (mole fraction) only.
0.000269

---

# test-conditions: in acetonitrile, 308.15 K
measured-endpoint: solubility (mole fraction)
Returns: the value as a bare number; no unit string appended.

State its solubility (mole fraction) for this compound: Nc1cccc2c1CN(C1CCC(=O)NC1=O)C2=O (stereo unspecified)
0.000573

---

# test-conditions: in acetonitrile, 318.15 K
measured-endpoint: solubility (mole fraction)

Check the records and state solubility (mole fraction) for Nc1cccc2c1CN(C1CCC(=O)NC1=O)C2=O (stereo unspecified)
0.000603

---

# test-conditions: in ethyl acetate, 293.15 K
measured-endpoint: solubility (mole fraction)
API doc: respond with a numeric literal and nothing else, no unit.

Retrieve solubility (mole fraction) measured for Nc1cccc2c1CN(C1CCC(=O)NC1=O)C2=O (stereo unspecified) and print it.
0.000127

---

# test-conditions: in isopropanol, 328.15 K
measured-endpoint: solubility (mole fraction)
When you answer, write just the number.

State its solubility (mole fraction): Nc1cccc2c1CN(C1CCC(=O)NC1=O)C2=O (stereo unspecified)
0.000231

---

# test-conditions: in methanol, 293.15 K
measured-endpoint: solubility (mole fraction)
Just the number.

Please supply the value of reported solubility (mole fraction) for the item Nc1cccc2c1CN(C1CCC(=O)NC1=O)C2=O (stereo unspecified)
0.000252

---

# test-conditions: in methanol, 328.15 K
measured-endpoint: solubility (mole fraction)
Please state the value as a number alone, without comment.

Determine from records and report solubility (mole fraction) for Nc1cccc2c1CN(C1CCC(=O)NC1=O)C2=O (stereo unspecified)
0.000434

---

# test-conditions: in acetonitrile, 323.15 K
measured-endpoint: solubility (mole fraction)
The answer should be written as a number, with no unit following it.

State its solubility (mole fraction) for this compound: Nc1cccc2c1CN(C1CCC(=O)NC1=O)C2=O (stereo unspecified)
0.000618

---

# test-conditions: in acetonitrile, 303.15 K
measured-endpoint: solubility (mole fraction)

Give recorded solubility (mole fraction). Nc1cccc2c1CN(C1CCC(=O)NC1=O)C2=O (stereo unspecified)
0.000561

---

# test-conditions: in ethyl acetate, 298.15 K
measured-endpoint: solubility (mole fraction)

Supply recorded solubility (mole fraction) for Nc1cccc2c1CN(C1CCC(=O)NC1=O)C2=O (stereo unspecified) here.
0.000144

---

# test-conditions: in ethyl acetate, 308.15 K
measured-endpoint: solubility (mole fraction)
Form rule: numeric answer, no unit written next to it.

Give the measured solubility (mole fraction) for Nc1cccc2c1CN(C1CCC(=O)NC1=O)C2=O (stereo unspecified)
0.000184

---

# test-conditions: in isopropanol, 313.15 K
measured-endpoint: solubility (mole fraction)
Reply with the value as a number alone.

Please report the measured solubility (mole fraction) for Nc1cccc2c1CN(C1CCC(=O)NC1=O)C2=O (stereo unspecified)
0.000141

---

# test-conditions: in acetonitrile, 293.15 K
measured-endpoint: solubility (mole fraction)
Hey, just send me the number, nothing else.

Supply reported solubility (mole fraction) belonging to this molecule: Nc1cccc2c1CN(C1CCC(=O)NC1=O)C2=O (stereo unspecified)
0.000539

---

# test-conditions: in methanol, 313.15 K
measured-endpoint: solubility (mole fraction)
Please respond with just the number, no unit label.

Could you please provide reported solubility (mole fraction) for Nc1cccc2c1CN(C1CCC(=O)NC1=O)C2=O (stereo unspecified) ? Thanks!
0.000332

---

# test-conditions: in acetonitrile, 298.15 K
measured-endpoint: solubility (mole fraction)
Kindly provide the number alone.

Identify the reported solubility (mole fraction) for the following entry. Nc1cccc2c1CN(C1CCC(=O)NC1=O)C2=O (stereo unspecified)
0.000549
